# credit: paper PMC3445454

Below is a list of entries, each paired with its recorded IC50 value.
# Study target: HLA-DP DPA1*02:01/DPB1*01:01 (Homo sapiens, UniProt P04440+P20036, F191V/F38Y/F64Y/G113D/G114E/K142R/L158P/L37V/M105V/M116V/M62Q/P115A/Q81R/R125K/R223Q/T114A/T199I/T259P)
# Sequence (P20036 29-260 A42M/M62Q/Q81R/T114A/K142R/L158P/F191V/T259P, other chains not shown): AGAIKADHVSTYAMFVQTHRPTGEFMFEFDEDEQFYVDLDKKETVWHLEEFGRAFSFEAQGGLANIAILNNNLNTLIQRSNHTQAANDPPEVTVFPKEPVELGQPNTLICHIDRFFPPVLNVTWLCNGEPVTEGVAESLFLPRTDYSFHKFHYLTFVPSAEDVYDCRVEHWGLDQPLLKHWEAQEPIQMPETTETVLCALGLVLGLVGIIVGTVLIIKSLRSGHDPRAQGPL
# Test details: biochemical
Ends that are not written are not given here.
Report the value in nM with no unit label.

1. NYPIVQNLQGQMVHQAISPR-NH2 [p17(131-132)/p24(1-18)]	2870

Data request: Report IC50, nothing else, for this substance: EAVRHFPRPWLHGL-NH2 [vpr(29-42)]
Data returned: 8610

Data request: Report IC50, nothing else, for this substance: VGSLQYLALTALITPKK-NH2 [vif(142-158)]
Data returned: 115

Data request: Report IC50, nothing else, for this substance: YAKMRSAHTNDVKQL-NH2 [RT(354-368)]
Data returned: 4430

Data request: Report IC50, nothing else, for this substance: SEELRSLYNTVATLYCVHQ-NH2 [p17(72-90)]
Data returned: 860

Data request: Report IC50, nothing else, for this substance: LNKIVRMYSPVSILDI-NH2 [p24(138-153)]
Data returned: 26

Data request: Report IC50, nothing else, for this substance: DEELLKAVRIIKILYQSNP-NH2 [rev(9-27)]
Data returned: 461

Data request: Report IC50, nothing else, for this substance: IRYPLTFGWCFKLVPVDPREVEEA-NH2 [nef(133-156)]
Data returned: 249

Data request: Report IC50, nothing else, for this substance: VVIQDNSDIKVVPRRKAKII-NH2 [integrase(249-268)]
Data returned: 5730

Data request: Report IC50, nothing else, for this substance: IVALIIAIVVWTIV-NH2 [vpu(13-26)]
Data returned: 26100

###

# Study target: HLA-DR DRB3*02:02 (Homo sapiens, UniProt P01903+P79483, A212P/D57E/F66Y/L67A/R103Q/R218S/R40L/S89Y/T80R/V86D/Y55F/Y59H)
# Sequence (P01903 26-254 limits assumed): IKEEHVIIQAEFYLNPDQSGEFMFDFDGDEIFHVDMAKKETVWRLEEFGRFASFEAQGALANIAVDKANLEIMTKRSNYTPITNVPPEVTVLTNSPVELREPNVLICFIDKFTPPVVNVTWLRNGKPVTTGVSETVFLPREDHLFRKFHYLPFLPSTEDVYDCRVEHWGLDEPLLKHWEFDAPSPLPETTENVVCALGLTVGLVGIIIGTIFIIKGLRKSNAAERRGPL
# Sequence (P79483 30-266 R40L/Y55F/D57E/Y59H/F66Y/L67A/T80R/V86D/S89Y/R103Q/A212P/R218S limits assumed): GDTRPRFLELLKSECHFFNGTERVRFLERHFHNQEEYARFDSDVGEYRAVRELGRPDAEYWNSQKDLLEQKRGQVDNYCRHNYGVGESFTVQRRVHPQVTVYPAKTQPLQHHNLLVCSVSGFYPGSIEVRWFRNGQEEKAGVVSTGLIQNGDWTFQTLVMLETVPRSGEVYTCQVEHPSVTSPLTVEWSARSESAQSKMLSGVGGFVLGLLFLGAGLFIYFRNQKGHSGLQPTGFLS
# Test details: biochemical
# Type: binding
# Test context: read-out: Binding capacity/IC50 (nM) DRB3*02:02
Parameter measured: IC50 (nM)
Report the value in nM with no unit label.

Data request: Report IC50, nothing else, for this compound: CC[C@H](C)[C@H](NC(=O)[C@@H](NC(=O)[C@H](CCCCN)NC(=O)[C@@H](NC(=O)[C@@H]1CCCN1C(=O)[C@H](Cc1c[nH]c2ccccc12)NC(=O)[C@H](CCCNC(=N)N)NC(=O)CNC(=O)[C@H](C)NC(=O)[C@H](CC(C)C)NC(=O)[C@H](CCCCN)NC(=O)[C@H](CC(C)C)NC(=O)[C@@H](NC(=O)[C@H](Cc1ccccc1)NC(=O)[C@H](Cc1ccc(O)cc1)NC(=O)[C@H](C)NC(=O)[C@@H](NC(=O)[C@@H](N)CCC(=O)O)[C@@H](C)O)[C@@H](C)CC)C(C)C)C(C)C)C(N)=O
Data returned: 7470

###

# Study target: HLA-DR DRB1*01:01 (Homo sapiens, UniProt P01903+P01911, A100R/D57E/F55L/F60I/F76Y/I96L/L162R/M171V/P40L/Q125E/R42F/V115G/Y59C)
# Test details: biochemical
# Format: binding
# Test context: read-out: Binding capacity/IC50 (nM) DRB1*01:01
Parameter measured: IC50 (nM)
Report the value in nM with no unit label.

Worked cases, IC50 given:
1) CC[C@H](C)[C@H](NC(=O)[C@@H]1CCCN1C(=O)[C@H](CCC(=O)O)NC(=O)[C@@H](N)CCCCN)C(=O)N[C@H](C(=O)NCC(=O)N[C@@H](C)C(=O)N[C@@H](CCC(=O)O)C(=O)N[C@H](C(=O)N[C@@H](Cc1ccccc1)C(=O)N[C@@H](Cc1ccc(O)cc1)C(=O)N[C@H](C(=O)N[C@@H](CC(=O)O)C(=O)NCC(=O)N[C@@H](C)C(N)=O)C(C)C)[C@@H](C)O)C(C)C	5.1
2) CC[C@H](C)[C@H](NC(=O)[C@H](Cc1ccc(O)cc1)NC(=O)CNC(=O)[C@H](CO)NC(=O)[C@H](C)NC(=O)[C@@H](NC(=O)[C@H](Cc1c[nH]cn1)NC(=O)[C@@H](NC(=O)[C@H](C)NC(=O)[C@@H](NC(=O)[C@H](CC(C)C)NC(=O)[C@@H](NC(=O)[C@@H](NC(=O)[C@H](CCCCN)NC(=O)CNC(=O)[C@@H](N)CCC(=O)O)[C@@H](C)CC)[C@@H](C)CC)C(C)C)C(C)C)C(C)C)C(=O)N[C@@H](CCC(=O)O)C(N)=O	0.56
3) CC[C@H](C)[C@H](NC(=O)[C@@H](NC(=O)[C@H](CCCCN)NC(=O)[C@@H](NC(=O)[C@@H]1CCCN1C(=O)[C@H](Cc1c[nH]c2ccccc12)NC(=O)[C@H](CCCNC(=N)N)NC(=O)CNC(=O)[C@H](C)NC(=O)[C@H](CC(C)C)NC(=O)[C@H](CCCCN)NC(=O)[C@H](CC(C)C)NC(=O)[C@@H](NC(=O)[C@H](Cc1ccccc1)NC(=O)[C@H](Cc1ccc(O)cc1)NC(=O)[C@H](C)NC(=O)[C@@H](NC(=O)[C@@H](N)CCC(=O)O)[C@@H](C)O)[C@@H](C)CC)C(C)C)C(C)C)C(N)=O	4.3

Shifting focus to the molecule that follows.
Data request: Report IC50, nothing else, for this molecule: CC[C@H](C)[C@H](NC(=O)CNC(=O)[C@H](CCCCN)NC(=O)[C@H](Cc1c[nH]cn1)NC(=O)[C@H](C)NC(=O)[C@@H]1CCCN1C(=O)[C@@H](NC(=O)[C@H](Cc1c[nH]c2ccccc12)NC(=O)[C@H](CO)NC(=O)[C@H](CC(C)C)NC(=O)[C@H](Cc1ccc(O)cc1)NC(=O)[C@@H](NC(=O)[C@H](CCCCN)NC(=O)[C@H](CCC(=O)O)NC(=O)[C@@H](N)CCCCN)C(C)C)C(C)C)C(=O)NCC(=O)NCC(=O)N[C@@H](CC(N)=O)C(=O)N[C@@H](CCC(=O)O)C(N)=O
Data returned: 16
